# assay.comment: solvent given as SMILES
# condition: in ClCCl
parameter.measured: emission maximum
The number alone won't do; follow it with the unit.

smiles	emission maximum
CCC1=C(CC)c2cccc3c2c(cc2nc4ccccc4nc23)O1	563 nm
CCCCCCCCCCCCCCCCN(CCCCCCCCCCCCCCCC)c1ccc(/C=C/c2cc[n+](Cc3cc(C[n+]4ccc(/C=C/c5ccc(N(CCCCCCCCCCCCCCCC)CCCCCCCCCCCCCCCC)cc5)cc4)cc(C[n+]4ccc(/C=C/c5ccc(N(CCCCCCCCCCCCCCCC)CCCCCCCCCCCCCCCC)cc5)cc4)c3)cc2)cc1	606 nm

Pending compound:
Notebook: [O-][n+]1c(/C=C/c2ccc3ccccc3c2)nc(N2CCOCC2)c2c1CCCC2 , emission maximum read as 546 nm

* * *

# assay.comment: solvent given as SMILES
# condition: in C1COCCO1
// No strictly below 500 nm in emission maximum; Yes otherwise

Study these solved cases before continuing.
> print(dat)
                                   compound  label.value
1  CCCCN(c1ccccc1)c1ccc2c(c1)C(CC)(CC)c1cc(/C=C/c3ccc(/C=C(\C#N)C(=O)O)s3)ccc1-2          Yes
2  c1ccc(C2CCN3COc4c5ccccc5c5c6c7c(c2c3c46)C(c2ccccc2)CCN7CO5)cc1 (centres undefined)          Yes
3          O=C1NC(c2ccccc2)=C/C1=C\c1ccccc1          Yes
4            CN(C)c1cc(C#N)c(N(C)C)c(C#N)c1          Yes

[in] Hi, just wondering whether c1ccc(-c2nc(-c3ccc(-c4ccc(-c5ccc(-c6nc(-c7ccccc7)c(-c7ccccc7)o6)cc5)cc4)cc3)oc2-c2ccccc2)cc1 shows emission maximum of 500 nm or higher.
[out] No

[in] Please tell me: is the compound Nc1c(-c2nn([C@H]3C[C@H](O)[C@@H](CO)O3)c3ncnc(N)c23)ccc2ccccc12 at or over 500 nm in terms of emission maximum?
[out] No

* * *

# assay.comment: solvent given as SMILES
# condition: in ClCCl
Exam item: assign rule met to entries whose emission maximum is below 400 nm and rule not met to entries at or above 400 nm. Note that a value of exactly 400 nm receives rule not met.

Below, 2 molecules whose answers are already recorded.
molecule	label.value
O=Cc1cc(N2CCCCC2)c2ccc3c(N4CCCCC4)cc(N4CCCCC4)c4ccc1c2c43	rule not met
O=Cc1cc(C=O)c2ccc3c(N4CCCCC4)cc(N4CCCCC4)c4ccc1c2c43	rule not met

[in] # strict comparison: is reported emission maximum < 400 nm? input = O=S1(=O)C2=C(c3ccccc31)C1(C3=C(c4ccccc41)S(=O)(=O)c1ccccc13)c1ccccc12
[out] rule not met

* * *

# assay.comment: solvent given as SMILES
# condition: in ClC(Cl)Cl
parameter.measured: emission maximum (nm)
Give the number; nm is assumed, so skip it.

molecule	endpoint.unit	emission maximum
Cc1ccc(C2=C3C=CC(C#Cc4ccccc4)=[N+]3[B-](F)(F)n3c(C#Cc4ccccc4)ccc32)cc1	nm	628
CCCCCCCCCCCCOc1cc2c3cc(OCCCCCCCCCCCC)c(OCCCCCCCCCCCC)cc3c3c(cc(OCCCCCCCCCCCC)c4nc5cc(C#Cc6ccc(OCCC(C)CCCC(C)C)cc6)c(C#Cc6ccc(OCCC(C)CCCC(C)C)cc6)cc5nc43)c2cc1OCCCCCCCCCCCC (stereo not drawn)	nm	660

// next entry
The reported value for c1ccc(N2c3ccc4ccccc4c3-c3c4ccccc4nc[n+]3[B-]2(c2ccccc2)c2ccccc2)cc1 in terms of emission maximum is 676

* * *

# assay.comment: solvent given as SMILES
# condition: in CCCCCC
parameter.measured: emission maximum (nm)
Kindly answer with a numeric value in nm, unit omitted.

Data point: CCC1=C(C)C2=Cc3c4ccccc4c4n3[B-](c3ccc5ccc6cccc7ccc3c5c67)(Oc3ccccc3-4)[N+]2=C1C (configuration not stated) ; emission maximum = 638

Lab note: CCC1(CC)c2ccccc2-c2c1c1c(c3c2C(CC)(CC)c2cc(B(c4c(C)cc(C)cc4C)c4c(C)cc(C)cc4C)ccc2-3)C(CC)(CC)c2ccccc2-1 gave emission maximum of 372

The compound listed as CN(C)c1ccc(-c2nc3c(c4c2-c2ccccc2CC4)-c2ccccc2CC3)cc1 has a reported emission maximum of 422

Per the records, this compound ( CC(C)[Si](C#Cc1c2ccccc2c(C#C[Si](C(C)C)(C(C)C)C(C)C)c2nc3cc4c(cc3nc12)C1c2ccccc2C4c2ccccc21)(C(C)C)C(C)C ) has emission maximum equal to 568

Short answer for c1ccc(-c2nc3c(c4c2-c2ccccc2CC4)-c2ccccc2CC3)cc1 : emission maximum was 363

The recorded emission maximum for COc1ccc(/C=N/c2cc(C(C)C)c(O)cc2C)cc1 is 401

* * *

Recorded measurements of emission maximum, one per entry
# assay.comment: solvent given as SMILES
# condition: in CC#N
Give the value in nm but do not write nm after it.

Here are 9 molecules together with their reported answers.
> print(dat)
                                     smiles  endpoint.result
1  N#Cc1ccc(N(c2ccc(C#N)cc2)c2ccc3c4cccc5c(N(c6ccc(C#N)cc6)c6ccc(C#N)cc6)ccc(c6cccc2c63)c54)cc1              535
2  CC(C)[Si]1(C(C)C)c2cc(N(C)C)ccc2-c2ccc(C(F)(F)F)cc21              440
3  Cc1ccc(-c2cc(-c3ccccc3)c3c(N)nc(N4CCCC4)c(C#N)c3n2)cc1              528
4            COc1ccc2c(c1)-c1cc(OC)ccc1C2=O              514
5                       Cc1ccc(-n2cccc2)cc1              312
6  Cc1ccc(C2=C3C=C(I)C=[N+]3[B-](F)(F)n3cccc32)cc1              546
7     CC1=N/C(=C\c2cccc(N(C)C)c2)C(=O)N1CCO              656
8           COC(=O)c1ccc2ccc3cccc4ccc1c2c34              389
9      Cc1cc2nc3[nH]c(=O)n(C)c(=O)c3nc2cc1C              436

# input for lookup
Reported emission maximum for CC1=[N+]2C(=C(c3ccc(C#N)cc3)c3ccc(C)n3[B-]2(F)F)C=C1 was 537

* * *

# assay.comment: solvent given as SMILES
# condition: in CC#N
# emission maximum values compiled below
Lab book: enter the figure in nm, no units written.

Known emission maximum results, listed for orientation:
smiles	endpoint.unit	emission maximum
F[B-]1(F)n2c(-c3ccccc3)cnc2-c2cccc[n+]21	nm	514
COc1ccc2c(c1)N(c1ccc(C)cc1)c1cc3c(cc1=N2)Oc1c(cc(C(C)(C)C)cc1C(C)(C)C)N=3	nm	625

Turning now to a further record.
Input CC(C)(C)c1ccc(-c2sc3c(-c4ccc(C(C)(C)C)cc4)c4n(c3c2-c2ccc(C(C)(C)C)cc2)[B-](F)(F)[N+]2=Cc3c(-c5ccc(C(C)(C)C)cc5)c5sc(-c6ccc(C(C)(C)C)cc6)c(-c6ccc(C(C)(C)C)cc6)c5n3[B-](F)(F)[N+]2=C4)cc1 . Output emission maximum: 627

* * *

# assay.comment: solvent given as SMILES
# condition: in CC#N
parameter.measured: emission maximum (nm)
Express your answer in nm, writing the number without its unit.

Some solved entries appear below for comparison.
> print(dat)
                                   compound  endpoint.result
1  CC1(C)CC(/C=C/c2ccc(-n3cncn3)cc2)=CC(=C(C#N)C#N)C1              522
2                        Nc1cccc2cccc(N)c12              413
3  CCCCCCc1ccc(-n2c3[n+](c4c5ccccc5c5ccccc5c42)[B-](C)(C)c2ccc4ccccc4c2-3)cc1              443
4           Nc1n[n+]([O-])c2ccccc2[n+]1[O-]              505

Notebook: F[B-]1(F)n2c(ccc2N2CCOCC2)C(c2ccccc2)=C2C=CC(N3CCOCC3)=[N+]21 , emission maximum read as 600

Looking up CCCCC1(c2ccccc2)Nc2c(-c3ccc(N(C)C)cc3)ccc(-c3ccc(N(C)C)cc3)c2N=C1c1ccccc1 (centres undefined) , I see its emission maximum listed as 588

Query C=Cc1ccc(-c2ccc(-c3nnc(-c4ccc(-c5nnc(-c6ccc(-c7ccc(C=C)cc7)s6)o5)cc4)o3)s2)cc1 yields emission maximum of 400

emission maximum reported for this compound C[C@]12SC(=O)C=C1c1nc(-c3ccccc3O)[nH]c1C1=CC(=O)S[C@@]12C : 407

Please fill in: emission maximum reported for COC(=O)C(NC(=O)OC(C)(C)C)c1ccc2oc(-c3ccc(O)cc3O)nc2c1 (centres undefined) = 380
